# Test system: KATOIII (Gastric Carcinoma)
# protocolText: combination Emax (second highest fraction inhibited in the dose matrix, 72 h); higher = more inhibition; extreme values may be limits of the assay
Below, each entry is listed with its recorded combination Emax.
property: combination Emax

compound: C[C@@H]1COCCN1c1cc(C2([S@](C)(=N)=O)CC2)nc(-c2ccnc3[nH]ccc23)n1 [AZD6738] + C1CC(C1)(C(=O)[O-])C(=O)[O-].N.N.[Pt+2] [Carboplatin] (first compound max 10 µM, 7x7, partner max 10 µM)
testedSystem: KATOIII (Gastric Carcinoma)
property: combination Emax
assayValue: 0.424

compound: CC1(C)CCC(CN2CCN(c3ccc(C(=O)NS(=O)(=O)c4ccc(NCC5CCOCC5)c([N+](=O)[O-])c4)c(Oc4cnc5[nH]ccc5c4)c3)CC2)=C(c2ccc(Cl)cc2)C1 [Venetoclax] + Cn1cnc2c(F)c(Nc3ccc(Br)cc3Cl)c(C(=O)NOCCO)cc21 [Selumetinib] (first compound max 1 µM, 7x7, partner max 3 µM)
testedSystem: KATOIII (Gastric Carcinoma)
property: combination Emax
assayValue: 0.186

compound: CS(=O)(=O)CCNCc1ccc(-c2ccc3ncnc(Nc4ccc(OCc5cccc(F)c5)c(Cl)c4)c3c2)o1 [Lapatinib] + NC1(c2ccc(-c3nc4ccn5c(=O)[nH]nc5c4cc3-c3ccccc3)cc2)CCC1 [MK-2206] (first compound max 10 µM, 7x7, partner max 10 µM)
testedSystem: KATOIII (Gastric Carcinoma)
property: combination Emax
assayValue: 0.44

====

# System: HT-29 (Colorectal Carcinoma);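 also: after 72 h of two-drug dosing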
# protocolText: Bliss excess, mean over the matrix (fraction); higher = more synergy
Below, each entry is listed with its recorded Bliss excess.

compound: Cc1c2c(nn1C)CSCc1cc(n(C)n1)CSc1cc(c3ccccc3c1)OCCCc1c(C(=O)O)n(C)c3c-2c(Cl)ccc13 [AZD5991] + CCN(CCO)CCCOc1ccc2c(Nc3cc(CC(=O)Nc4cccc(F)c4)[nH]n3)ncnc2c1 [AZD2811] (first compound max 1 µM, 7x7, partner max 1 µM)
Bliss excess: 0.0498
--
compound: CS(=O)(=O)CCNCc1ccc(-c2ccc3ncnc(Nc4ccc(OCc5cccc(F)c5)c(Cl)c4)c3c2)o1 [Lapatinib] + Cn1cnc2c(F)c(Nc3ccc(Br)cc3Cl)c(C(=O)NOCCO)cc21 [Selumetinib] (first compound max 10 µM, 7x7, partner max 10 µM)
Bliss excess: 0.0362
--
compound: C[C@@H](Nc1cc(F)cc(F)c1)c1cc(C(=O)N(C)C)cc2c(=O)cc(N3CCOCC3)oc12 [AZD8186] + C1CN(CCC1(C(=O)N[C@@H](CCO)C2=CC=C(C=C2)Cl)N)C3=NC=NC4=C3C=CN4 [AZD5363] (first compound max 10 µM, 7x7, partner max 10 µM)
Bliss excess: -0.0172
--
compound: N#Cc1cnc(Nc2cc(NC[C@H]3CNCCO3)c(C(F)(F)F)cn2)cn1 [SRA737] + Nc1ccn([C@@H]2O[C@H](CO)[C@@H](O)C2(F)F)c(=O)n1 [Gemcitabine] (first compound max 10 µM, 7x7, partner max 0.3 µM)
Bliss excess: 0.0573
--
compound: COc1nnc2ccc(N3CCC(c4ccc(OCCN5CCN(C)C(=O)[C@H]5C)cc4)CC3)nn12 [AZD5153] + Cc1c2c(nn1C)CSCc1cc(n(C)n1)CSc1cc(c3ccccc3c1)OCCCc1c(C(=O)O)n(C)c3c-2c(Cl)ccc13 [AZD5991] (first compound max 1 µM, 7x7, partner max 1 µM)
Bliss excess: -0.0227
--
compound: Cc1cc2ncnn2cc1Nc1ncc2c(n1)n(C1CCOCC1)c(=O)n2C [AZD7648] + CN(C)CCCOc1ccc(-c2ccc3ncc4c(c3c2)n(C2CCOCC2)c(=O)n4C)cn1 [AZD0156] (first compound max 10 µM, 7x7, partner max 1 µM)
Bliss excess: 0.0289
--
compound: C=CCn1c(=O)c2cnc(Nc3ccc(N4CCN(C)CC4)cc3)nc2n1-c1cccc(C(C)(C)O)n1 [AZD1775] + O=C(c1cc(Cc2n[nH]c(=O)c3ccccc23)ccc1F)N1CCN(C(=O)C2CC2)CC1 [Olaparib] (first compound max 1 µM, partner max 10 µM)
Bliss excess: -0.0368

====

# Tested on: NCI-H1781 (Lung Adenocarcinoma)
# protocolText: combination Emax (second highest fraction inhibited in the dose matrix, 72 h); higher = more inhibition; extreme values may be limits of the assay
Below, each entry is listed with its recorded combination Emax.

compound: Cc1cc2ncnn2cc1Nc1ncc2c(n1)n(C1CCOCC1)c(=O)n2C [AZD7648] + C=CCn1c(=O)c2cnc(Nc3ccc(N4CCN(C)CC4)cc3)nc2n1-c1cccc(C(C)(C)O)n1 [AZD1775] (first compound max 10 µM, partner max 1 µM)
combination Emax: 0.482
--
compound: CN(CCO)CC[C@H](CSc1ccccc1)Nc1ccc(S(=O)(=O)NC(=O)c2ccc(N3CCC([C@@H](O)c4ccccc4-c4ccc(Cl)cc4)CC3)cc2)cc1S(=O)(=O)C(F)(F)F [AZD4320] + C[C@@H](Nc1cc(F)cc(F)c1)c1cc(C(=O)N(C)C)cc2c(=O)cc(N3CCOCC3)oc12 [AZD8186] (first compound max 1 µM, 7x7, partner max 3 µM)
combination Emax: 0.623
--
compound: Cc1cc2ncnn2cc1Nc1ncc2c(n1)n(C1CCOCC1)c(=O)n2C [AZD7648] + C[C@@H]1COCCN1C2=NC(=NC(=C2)C3(CC3)[S@](=N)(=O)C)C4=C5C=CNC5=NC=C4 [AZD6738] (first compound max 10 µM, 7x7, partner max 10 µM)
combination Emax: 0.443
--
compound: CS(=O)(=O)CCNCc1ccc(-c2ccc3ncnc(Nc4ccc(OCc5cccc(F)c5)c(Cl)c4)c3c2)o1 [Lapatinib] + C[C@@H](Oc1cc(-c2cnn(C3CCNCC3)c2)cnc1N)c1c(Cl)ccc(F)c1Cl [Crizotinib] (first compound max 10 µM, 7x7, partner max 10 µM)
combination Emax: 0.774
--
compound: CN(CCO)CC[C@H](CSc1ccccc1)Nc1ccc(S(=O)(=O)NC(=O)c2ccc(N3CCC([C@@H](O)c4ccccc4-c4ccc(Cl)cc4)CC3)cc2)cc1S(=O)(=O)C(F)(F)F [AZD4320] + CCN(CCO)CCCOc1ccc2c(Nc3cc(CC(=O)Nc4cccc(F)c4)[nH]n3)ncnc2c1 [AZD2811] (first compound max 1 µM, 7x7, partner max 1 µM)
combination Emax: 0.741
--
compound: CN(C)CCCOc1ccc(-c2ccc3ncc4c(c3c2)n(C2CCOCC2)c(=O)n4C)cn1 [AZD0156] + C[C@@H]1COCCN1C2=NC(=NC(=C2)C3(CC3)[S@](=N)(=O)C)C4=C5C=CNC5=NC=C4 [AZD6738] (first compound max 1 µM, 7x7, partner max 10 µM)
combination Emax: 0.346
--
compound: CC1(C)CCC(CN2CCN(c3ccc(C(=O)NS(=O)(=O)c4ccc(NCC5CCOCC5)c([N+](=O)[O-])c4)c(Oc4cnc5[nH]ccc5c4)c3)CC2)=C(c2ccc(Cl)cc2)C1 [Venetoclax] + CN(C)CCCOc1ccc(-c2ccc3ncc4c(c3c2)n(C2CCOCC2)c(=O)n4C)cn1 [AZD0156] (first compound max 1 µM, 7x7, partner max 1 µM)
combination Emax: 0.277
--
compound: NC1(C(=O)N[C@@H](CCO)c2ccc(Cl)cc2)CCN(c2ncnc3[nH]ccc23)CC1 [Capivasertib] + Cn1cnc2c(F)c(Nc3ccc(Br)cc3Cl)c(C(=O)NOCCO)cc21 [Selumetinib] (first compound max 10 µM, 7x7, partner max 10 µM)
combination Emax: 0.695
--
compound: Cc1nc(Nc2ncc(C(=O)Nc3c(C)cccc3Cl)s2)cc(N2CCN(CCO)CC2)n1 [Dasatinib] + CC(=O)Nc1cccc(-n2c(=O)n(C3CC3)c(=O)c3c(Nc4ccc(I)cc4F)n(C)c(=O)c(C)c32)c1 [Trametinib] (first compound max 2 µM, 7x7, partner max 1 µM)
combination Emax: 0.34
--
compound: Cc1c2c(nn1C)CSCc1cc(n(C)n1)CSc1cc(c3ccccc3c1)OCCCc1c(C(=O)O)n(C)c3c-2c(Cl)ccc13 [AZD5991] + C1CN(CCC1(C(=O)N[C@@H](CCO)C2=CC=C(C=C2)Cl)N)C3=NC=NC4=C3C=CN4 [Capivasertib] (first compound max 1 µM, 7x7, partner max 3 µM)
combination Emax: 0.76
--
compound: NC1(C(=O)N[C@@H](CCO)c2ccc(Cl)cc2)CCN(c2ncnc3[nH]ccc23)CC1 [Capivasertib] + CC(C)n1c(=O)n(C)c2cnc3cc(F)c(-c4ccc(OCCCN5CCCCC5)nc4)cc3c21 [AZD1390] (first compound max 10 µM, 7x7, partner max 0.3 µM)
combination Emax: 0.485
--
compound: C[C@@H](c1ccc2nccn2c1)n1nnc2ncc(-c3cnn(C)c3)nc21 [Savolitinib] + Cc1c2c(nn1C)CSCc1cc(n(C)n1)CSc1cc(c3ccccc3c1)OCCCc1c(C(=O)O)n(C)c3c-2c(Cl)ccc13 [AZD5991] (first compound max 1 µM, 7x7, partner max 1 µM)
combination Emax: 0.32
--
compound: C=CCn1c(=O)c2cnc(Nc3ccc(N4CCN(C)CC4)cc3)nc2n1-c1cccc(C(C)(C)O)n1 [AZD1775] + C[C@@H]1COCCN1C2=NC(=NC(=C2)C3(CC3)[S@](=N)(=O)C)C4=C5C=CNC5=NC=C4 [AZD6738] (first compound max 1 µM, partner max 10 µM)
combination Emax: 0.65

Data provenance: the supplement of paper PMC11061612
